Each recorded value in this set is attributed to ChEMBL document CHEMBL1201862.

test system: EKVX; assay: NCI tumour cell line growth inhibition, 48 h
Activity calls are given as the source filed them. No stated cut-off is given here; in the data, active = GI50 up to about 1.1 µM and inactive = higher.
READOUT KIND: GI50

>>> readout_value("CCN1CCC(O)(c2ccc(Oc3ccccc3)cc2)C(C(=O)c2ccc(Oc3ccccc3)cc2)C1 (stereo not given)")
"16 µM (inactive)"

## Task Entry under review: `COc1cc(CCCl)c(CC2=NCCc3cc(OC)c(OC)cc32)cc1OC` . Reported GI50?
## Result 88.9 µM (inactive)

## Task Same again, this time with CC1SCCc2nc3ccccc3n21 (stereo not given)
## Result > 100 µM (inactive)

## Task Same again, this time with `CN1CCN(c2ccc3nc(-c4cc(O)c5c(nc(CO)n5C)c4O)[nH]c3n2)CC1`
## Result 22.9 µM (inactive)

## Task Same again, this time with `Brc1ccc2c(c1)C1(c3cc(Br)ccc3-2)c2cc(Br)ccc2-c2ccc(Br)cc21`
## Result > 100 µM (inactive)
